Numbers sourced from patent US20260125454A1.

# Target or system: T1, Biotin-huCGRPaSA (human, not fully specified; biotin (position not given))
# T1 construct: exact construct ('aSA') not explained; also called Biotin CGRPaSA; full-length (1-37) CGRP
# T1 peptide: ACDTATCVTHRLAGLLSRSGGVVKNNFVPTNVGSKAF
# Experiment notes: ELISA, supernatant; relative to chimeric C245
Readout kind: Relative binding activity, % (%)
All answers are understood in %, so give the number only.

Exam item: Which Relative binding activity, % reading was recorded for the binder hu19 (antibody, V domains shown, 1B2 HC-2/1F5 LC1-2) VH: QVQLVQSGAEVKKPGASVKVSCKASGYTFTDYNMHWVRQAPGQRLEWMGYIFPYNGVAVYNRKFRSRVTLTVDTSSSTAYMELSSLRSEDTAVYYCAREGLGGYWGQGTLVTVSS VL: EIVLTQSPATLSLSPGERATLSCKASQNIDFDGYAYMNWYQHKPGQAPRVLIYSVFNLESGIPARFSGSGSGTDFTLTISSLEPEDFAVYYCQQSHEVPYTFGQGTKLEIK ?
Marked response: 73

Exam item: Which Relative binding activity, % reading was recorded for the binder hu52 (antibody, V domains shown, 1F5 HC-2/3H10 LC2-2) VH: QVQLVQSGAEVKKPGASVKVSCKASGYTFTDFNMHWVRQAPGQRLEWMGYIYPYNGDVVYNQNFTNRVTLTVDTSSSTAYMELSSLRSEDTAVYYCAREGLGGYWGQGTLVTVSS VL: DIQLTQSPSSLSASVGDRVTITCKASQNIDYGGYSYMNWYQQKPGKAPKVLIYSVFNLESGVPSRFSGSGSGTDFTLTISSLQPEDFATYYCQQSNEAPYTFGQGTKLEIK ?
Marked response: 25

Exam item: Which Relative binding activity, % reading was recorded for the binder hu216 (antibody, V domains shown, 3H10 HC-2/1F5 LC1-4) VH: QVQLVQSGAEVKKPGASVKVSCKASGYTFTDYNMHWVRQAPGQGLEWMGYIYPYNGHTVYNQKFRNRVTLTVDTSSSTAYMELRSLRSDDTAVYYCAREGLGGYWGQGTLVTVSS VL: DIVLTQSPDSLAVSLGERATINCKASQNIDFDGYAYMNWYQHKPGQPPKVLIYSVFNLESGVPDRFSGSGSGTDFTLTISSLQAEDVAVYYCQQSHEVPYTFGQGTKLEIK ?
Marked response: 58

Exam item: Which Relative binding activity, % reading was recorded for the binder hu184 (antibody, V domains shown, 3E5 HC-4/1A2 LC2-2) VH: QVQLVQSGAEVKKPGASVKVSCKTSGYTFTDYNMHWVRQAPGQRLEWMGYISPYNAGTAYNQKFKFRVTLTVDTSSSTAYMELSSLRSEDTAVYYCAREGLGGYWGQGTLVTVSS VL: DIVLTQSPASLAVSPGQRATITCKASQNIDYDGYAYLNWYQQKPGQPPKVLIYSVFNLESGVPARFSGSGSGTDFTLTINPVEADDTANYYCQQSNEFPYTFGQGTKLEIK ?
Marked response: 23

Exam item: Which Relative binding activity, % reading was recorded for the binder hu79 (antibody, V domains shown, 1F5 HC-5/1A2 LC2-1) VH: QVQLVQSGAEVKKPGASVKVSCKASGYTFIDFNMHWVRQAPGQRLEWMGYIYPYNADVVYNQDFTNRVTLTVDTSSSTAYMELSSLRSEDTAVYYCAREGLGGYWGQGTLVTVSS VL: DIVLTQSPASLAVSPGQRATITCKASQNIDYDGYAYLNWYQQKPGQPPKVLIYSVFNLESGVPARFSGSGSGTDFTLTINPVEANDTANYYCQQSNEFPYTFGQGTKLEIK ?
Marked response: 80
